Reported pIC50 values for the following molecules.
assayed-target: Tyrosine-protein kinase receptor UFO (Homo sapiens, UniProt P30530)
Sequence (P30530 whole entry): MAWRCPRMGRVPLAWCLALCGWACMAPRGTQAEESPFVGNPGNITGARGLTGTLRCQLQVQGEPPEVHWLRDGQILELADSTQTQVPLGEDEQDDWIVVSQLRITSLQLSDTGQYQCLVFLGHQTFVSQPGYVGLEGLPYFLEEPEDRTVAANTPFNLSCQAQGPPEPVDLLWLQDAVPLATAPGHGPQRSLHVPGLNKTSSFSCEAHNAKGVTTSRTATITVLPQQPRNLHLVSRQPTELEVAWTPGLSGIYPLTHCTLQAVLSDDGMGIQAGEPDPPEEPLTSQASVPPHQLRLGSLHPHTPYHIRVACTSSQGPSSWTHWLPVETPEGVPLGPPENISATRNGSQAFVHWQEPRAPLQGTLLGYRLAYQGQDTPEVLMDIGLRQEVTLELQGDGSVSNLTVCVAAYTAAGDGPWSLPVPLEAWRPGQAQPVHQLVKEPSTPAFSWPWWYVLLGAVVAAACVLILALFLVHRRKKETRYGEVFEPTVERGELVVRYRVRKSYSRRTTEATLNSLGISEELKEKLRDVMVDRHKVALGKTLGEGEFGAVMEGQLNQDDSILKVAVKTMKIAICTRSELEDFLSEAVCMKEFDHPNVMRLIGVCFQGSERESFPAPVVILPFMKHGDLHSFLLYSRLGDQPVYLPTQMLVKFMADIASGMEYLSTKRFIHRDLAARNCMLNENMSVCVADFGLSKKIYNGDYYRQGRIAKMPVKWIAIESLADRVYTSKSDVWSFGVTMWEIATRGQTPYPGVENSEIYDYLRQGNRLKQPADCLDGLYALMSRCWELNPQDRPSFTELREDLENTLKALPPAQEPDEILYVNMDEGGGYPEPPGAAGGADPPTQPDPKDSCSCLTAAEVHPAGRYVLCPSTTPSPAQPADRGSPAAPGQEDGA
experiment-summary: Inhibition of FLAG-tagged AXL (unknown origin) transfected in Cos-7 cells assessed as phosphorylation level incubated for 1 hr by ELISA
Format: cell-based
# pIC50 = -log10(concentration in molar units)

Worked examples, 3 molecules total:
- molecule-smiles: "Cc1cc(-c2c(C)nn(C)c2C)cnc1-c1nnc(N(C)Cc2ccc3nccn3c2)o1"
  pIC50: 5.20
- molecule-smiles: "Cc1cc(-c2c(C)nn(C)c2C)ccc1-c1nnc(N(C)Cc2ccc3ncc(C(=O)N(C)C)n3c2)o1"
  pIC50: 6.40
- molecule-smiles: "Cc1cc(-c2c(C)nn(C)c2C)ccc1-c1nnc(N(C)Cc2ccc3ncc(-c4ccccc4)n3c2)o1"
  pIC50: 6.70

Please find the next molecule below.
# input molecule: Cc1cc(-c2c(C)nn(C)c2C)ccc1-c1nnc(N(C)Cc2ccc3nccn3c2)o1 ; wanted: its pIC50
6.40
